test system: primary uterine smooth muscle cells (UtSMC); assay: IL-6 production in UtSMC stimulated with LPS; type: cell-based; settings: UtSMC pre-treated, then LPS; LPS positive control 121.7 pg/mL
Items are presented alongside their recorded IL-6.
I only need the number, in pg/mL, no unit after it.

// known answers, use as guide
>  <molecule>
CC(=O)[C@H]1CC[C@H]2[C@@H]3CCC4=CC(=O)CC[C@]4(C)[C@H]3CC[C@]12C

>  <endpoint.name>
IL-6

>  <unit.descriptor>
pg/mL

>  <result.value>
100.3

$$$$
>  <molecule>
CC(=O)[C@H]1CC[C@H]2[C@@H]3C[C@@H](O)C4=CC(=O)CC[C@]4(C)[C@H]3CC[C@]12C

>  <endpoint.name>
IL-6

>  <unit.descriptor>
pg/mL

>  <result.value>
125.4

$$$$
>  <molecule>
CC(=O)[C@H]1[C@H](O)C[C@H]2[C@@H]3CCC4=CC(=O)CC[C@]4(C)[C@H]3CC[C@@]21C

>  <endpoint.name>
IL-6

>  <unit.descriptor>
pg/mL

>  <result.value>
98.7

$$$$

We now examine a further molecule.
Problem: IL-6 of C[C@]12CC[C@@H]3c4ccc(O)cc4CC[C@H]3[C@@H]1CC[C@@H]2O [E2, reference compound] on primary uterine smooth muscle cells (UtSMC)?
Solution: 126
